Overview of recorded pSTAT3 MFI, CD8 T cells, 10 nM (unstimulated 1446) for various binders
Biological target: T1, IL10Rα/IL2Rγ receptor (human, UniProt Q13651 22-578; P31785 23-369)
T1 sequence (looked up) 1: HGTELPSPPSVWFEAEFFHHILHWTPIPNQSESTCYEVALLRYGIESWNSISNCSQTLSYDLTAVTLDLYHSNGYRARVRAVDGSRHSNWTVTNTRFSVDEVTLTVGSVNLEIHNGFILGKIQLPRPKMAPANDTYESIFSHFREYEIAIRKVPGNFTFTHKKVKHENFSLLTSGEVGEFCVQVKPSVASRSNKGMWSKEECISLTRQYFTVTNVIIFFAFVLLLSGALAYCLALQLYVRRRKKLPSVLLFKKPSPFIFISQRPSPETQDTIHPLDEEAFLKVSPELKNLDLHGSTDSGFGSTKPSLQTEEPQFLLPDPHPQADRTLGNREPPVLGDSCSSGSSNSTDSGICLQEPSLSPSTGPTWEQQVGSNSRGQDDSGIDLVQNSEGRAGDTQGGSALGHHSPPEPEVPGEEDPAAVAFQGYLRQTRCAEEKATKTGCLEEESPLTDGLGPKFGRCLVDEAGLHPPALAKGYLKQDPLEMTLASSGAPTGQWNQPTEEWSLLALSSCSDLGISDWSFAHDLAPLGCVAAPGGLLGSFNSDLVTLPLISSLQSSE
T1 sequence (looked up) 2: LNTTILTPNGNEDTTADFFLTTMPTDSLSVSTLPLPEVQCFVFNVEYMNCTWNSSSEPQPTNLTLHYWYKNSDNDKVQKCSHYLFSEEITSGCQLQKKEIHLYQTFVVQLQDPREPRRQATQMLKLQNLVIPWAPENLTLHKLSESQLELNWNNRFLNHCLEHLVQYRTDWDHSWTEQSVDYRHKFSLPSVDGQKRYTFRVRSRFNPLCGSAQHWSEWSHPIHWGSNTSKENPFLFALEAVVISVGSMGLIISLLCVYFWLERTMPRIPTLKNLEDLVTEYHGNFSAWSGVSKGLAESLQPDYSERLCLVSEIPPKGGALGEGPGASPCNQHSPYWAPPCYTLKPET
Assay: cell-based or functional assay
readout_type: pSTAT3 MFI, CD8 T cells, 10 nM (unstimulated 1446) (MFI)

{"binder": "DR395(DR229-DR239) (bispecific antibody) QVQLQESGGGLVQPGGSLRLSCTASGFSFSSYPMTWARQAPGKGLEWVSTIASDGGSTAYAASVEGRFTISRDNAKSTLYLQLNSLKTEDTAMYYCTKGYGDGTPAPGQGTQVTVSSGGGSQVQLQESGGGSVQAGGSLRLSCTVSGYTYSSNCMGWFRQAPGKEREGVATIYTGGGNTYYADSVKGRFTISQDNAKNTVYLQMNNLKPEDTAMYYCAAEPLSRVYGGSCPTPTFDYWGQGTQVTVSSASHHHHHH", "observed_result": 3880}
{"binder": "DR441(DR236-DR231) (bispecific antibody) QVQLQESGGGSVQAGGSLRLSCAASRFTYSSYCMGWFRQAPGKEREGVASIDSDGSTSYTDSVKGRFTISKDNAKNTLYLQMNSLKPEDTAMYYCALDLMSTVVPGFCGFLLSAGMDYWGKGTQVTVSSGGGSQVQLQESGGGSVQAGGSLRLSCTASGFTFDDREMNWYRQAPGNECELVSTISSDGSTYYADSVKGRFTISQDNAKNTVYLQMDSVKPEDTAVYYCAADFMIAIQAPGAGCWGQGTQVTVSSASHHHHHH", "observed_result": 4470}
{"binder": "DR471(DR241-DR231) (bispecific antibody) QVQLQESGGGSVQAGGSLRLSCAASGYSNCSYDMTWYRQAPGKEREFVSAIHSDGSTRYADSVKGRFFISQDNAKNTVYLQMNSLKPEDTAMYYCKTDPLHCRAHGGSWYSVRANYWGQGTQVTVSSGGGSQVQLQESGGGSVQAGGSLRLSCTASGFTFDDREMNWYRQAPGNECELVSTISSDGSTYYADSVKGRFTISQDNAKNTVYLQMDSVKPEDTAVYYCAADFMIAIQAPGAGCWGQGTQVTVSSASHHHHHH", "observed_result": 4610}
{"binder": "DR465(DR240-DR231) (bispecific antibody) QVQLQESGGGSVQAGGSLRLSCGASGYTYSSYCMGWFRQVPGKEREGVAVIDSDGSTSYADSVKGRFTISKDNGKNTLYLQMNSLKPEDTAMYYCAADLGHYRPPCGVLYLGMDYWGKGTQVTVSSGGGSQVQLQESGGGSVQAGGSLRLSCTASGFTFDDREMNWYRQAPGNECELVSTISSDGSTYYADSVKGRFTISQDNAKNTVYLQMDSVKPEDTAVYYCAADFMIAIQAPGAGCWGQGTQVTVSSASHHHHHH", "observed_result": 4850}

Reference source for all entries: patent US20250163162A1
